Some binders, each annotated with its measured Ki.
Molecular target: bovine trypsin (bovine, UniProt P00760 24-246)
Sequence (P00760 24-246): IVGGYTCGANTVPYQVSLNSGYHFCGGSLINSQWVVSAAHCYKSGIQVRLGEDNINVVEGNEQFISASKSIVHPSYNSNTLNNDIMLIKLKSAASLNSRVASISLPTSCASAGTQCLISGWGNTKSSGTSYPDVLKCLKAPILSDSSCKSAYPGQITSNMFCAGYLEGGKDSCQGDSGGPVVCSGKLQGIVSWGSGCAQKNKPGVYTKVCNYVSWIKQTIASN
Assay: trypsin inhibition, BApNA substrate
Bridge positions count the residues as written; N and C are the ends. Ends that are not written are not given here.
Report the figure along with its unit, number first.

Use these answered entries as a reference point.
Consider the binder CGRWTKSIPPICF (disulfide 1-12 (inferred)) [BT57] . State its measured Ki. 30 nM

Consider the binder CGRAAKSIPPICF (disulfide 1-12 (inferred)) [BT26] . State its measured Ki. 530 nM

Please examine the following record next.
Consider the binder CGRQTKSIPPICF (disulfide 1-12 (inferred)) [BT54] . State its measured Ki. 10 nM

Provenance of the data: patent US20230416329A1
